Each recorded value in this set is attributed to patent US20240307374A1.

ASSAY NAME: pKa test, spectrophotometric method (UV-metric pKa)
Type: physicochemical
EXPERIMENTAL SETUP: 48.2% MeOH in water, MeOH concentration of 48.2%; read-out: psKa (apparent pKa 1), UV-metric

>  <COMPOUND>
CC(=O)NCC1CCN(Cc2cc(Oc3ccc(N4CCN(CCC(=O)O)CC4)nc3)nc(-c3cc(Cl)cc(Cl)c3)c2)CC1 [Compound (I) freeform]

>  <pKa>
1.56

$$$$

###

ASSAY NAME: Equilibrium solubility of freeform Type D in pH=4.0 and 5.0 citrate/phosphate buffers
Type: physicochemical
EXPERIMENTAL SETUP: aqueous buffer, thermodynamic from solid; citrate/phosphate buffer, initial pH 4.0, RT, 24 hours

>  <COMPOUND>
CC(=O)NCC1CCN(Cc2cc(Oc3ccc(N4CCN(CCC(=O)O)CC4)nc3)nc(-c3cc(Cl)cc(Cl)c3)c2)CC1 [Freeform Type D]

>  <solubility at 24 h>
30.6 mg/mL

$$$$
